Test system: Digitaria sanguinalis (DIGSA)
Assay: Pre-emergence herbicidal action against DIGSA
Format: in vivo
Details: dosage 320 g/ha
Pre-emergence action against DIGSA in % overview
Write it as a number; the unit % goes unstated.

Solved cases below.
> print(dat)
                              smiles.record  value.unit  recorded.measurement
1  COC(=O)COc1nn(-c2ncccc2C(F)(F)F)c(-c2cncc(F)c2)c1I           %                    80
2  COC(=O)[C@H](C)COC(=O)COc1nn(-c2ccccn2)c(-c2cncc(F)c2)c1Cl           %                   100
3  COC(=O)[C@@H](C)Oc1nn(-c2nc(F)ccc2F)c(-c2cncc(F)c2)c1C1CC1           %                   100
4  COC(=O)CCOC(=O)COc1nn(-c2ccccn2)c(-c2ccc(Cl)nc2)c1Br           %                    90
5  C[C@@H](Oc1nn(-c2nc(F)ccc2F)c(-c2ccc(F)nc2)c1C1CC1)C(=O)O           %                   100

## Input # get_value(readout='Pre-emergence action against DIGSA in %', item= CCOC(=O)COc1nn(-c2ccccn2)c(-c2ccc(Cl)nc2)c1Cl )
## Output 90

## Input # get_value(readout='Pre-emergence action against DIGSA in %', item= COC(=O)[C@@H](C)Oc1nn(-c2ncccc2F)c(-c2cncc(F)c2)c1Br )
## Output 100

## Input # get_value(readout='Pre-emergence action against DIGSA in %', item= CCOC(=O)COc1nn(-c2nc(F)ccc2F)c(-c2cncc(F)c2)c1Cl )
## Output 100

---

Test system: Zea mays (ZEAMX)
Type: in vivo
Conditions: pre-emergence, 80 g/ha, crop plant compatibility, in comparison to untreated controls
Pre-emergence action against ZEAMX in % overview
Write it as a number; the unit % goes unstated.

> print(dat)
                                   compound                        measured.quantity  recorded.measurement
1  COC(=O)CCOC(=O)COc1nn(-c2ccccn2)c(-c2cncc(F)c2)c1C1CC1  Pre-emergence action against ZEAMX in %                    10
2  COC(=O)CCOC(=O)COc1nn(-c2ccccn2)c(-c2ccc(F)nc2)c1F  Pre-emergence action against ZEAMX in %                     0
3  CCOC(=O)CSc1nn(-c2ccccn2)c(-c2cncc(F)c2)c1C1CC1  Pre-emergence action against ZEAMX in %                     0
4  O=C(O)COc1nn(-c2nc(F)ccc2F)c(-c2ccc(F)nc2)c1Br  Pre-emergence action against ZEAMX in %                    20
5  COC(=O)[C@@H](C)Oc1nn(-c2ncccc2Cl)c(-c2ccc(F)nc2)c1Br  Pre-emergence action against ZEAMX in %                    10

## Input # get_value(readout='Pre-emergence action against ZEAMX in %', item= O=C(O)COc1nn(-c2ccccn2)c(-c2ccc(F)nc2)c1C(F)(F)F )
## Output 0

## Input # get_value(readout='Pre-emergence action against ZEAMX in %', item= O=C(O)COc1nn(-c2ccccn2)c(-c2cncc(F)c2)c1C1CC1 )
## Output 0

## Input # get_value(readout='Pre-emergence action against ZEAMX in %', item= O=C(O)COc1nn(-c2ccccn2)c(-c2ccc(Cl)nc2)c1Cl )
## Output 20

## Input # get_value(readout='Pre-emergence action against ZEAMX in %', item= COC(=O)[C@H](C)COC(=O)COc1nn(-c2ccnc(Cl)c2)c(-c2ccc(F)nc2)c1Br )
## Output 20

## Input # get_value(readout='Pre-emergence action against ZEAMX in %', item= CCOC(=O)COc1nn(-c2ncccc2F)c(-c2ccc(F)nc2)c1I )
## Output 0

## Input # get_value(readout='Pre-emergence action against ZEAMX in %', item= O=C(COc1nn(-c2ccccn2)c(-c2ccc(F)nc2)c1Br)NS(=O)(=O)CC(F)(F)F )
## Output 0

## Input # get_value(readout='Pre-emergence action against ZEAMX in %', item= O=C(O)CNC(=O)COc1nn(-c2ccnc(F)c2)c(-c2ccc(F)nc2)c1Br )
## Output 0

## Input # get_value(readout='Pre-emergence action against ZEAMX in %', item= COC(=O)C1CCCN(C(=O)COc2nn(-c3ccccn3)c(-c3ccc(F)nc3)c2Br)C1 (centres unmarked) )
## Output 10

## Input # get_value(readout='Pre-emergence action against ZEAMX in %', item= O=C(O)COc1nn(-c2ccccn2)c(-c2ccc(F)nc2)c1I )
## Output 0

## Input # get_value(readout='Pre-emergence action against ZEAMX in %', item= COC(=O)CCOC(=O)[C@@H](C)Oc1nn(-c2ccccn2)c(-c2ccc(Cl)nc2)c1Br )
## Output 0

## Input # get_value(readout='Pre-emergence action against ZEAMX in %', item= O=C(O)COc1nn(-c2ccccn2)c(-c2ccnc(F)c2)c1Br )
## Output 0

## Input # get_value(readout='Pre-emergence action against ZEAMX in %', item= COCCOC(=O)COc1nn(-c2ncccc2C(F)(F)F)c(-c2cncc(F)c2)c1Br )
## Output 10

---

Test system: Avena fatua (AVEFA)
Assay: Post-emergence herbicidal action against AVEFA
Format: in vivo
Conditions: 320 g/ha, visual rating about 3 weeks after treatment
Post-emergence action against AVEFA in % overview
Write it as a number; the unit % goes unstated.

Solved cases below.
> print(dat)
                                   compound  recorded.measurement
1  COC(=O)CCOC(=O)[C@@H](C)Oc1nn(-c2ccccn2)c(-c2ccc(F)nc2)c1Cl [Example I-340]                    90
2  CCOC(=O)COc1nn(-c2nc(F)ccc2F)c(-c2ccc(F)nc2)c1Br [Example I-330]                    80
3  CCOC(=O)COc1nn(-c2ccccn2)c(-c2ccc(F)nc2)c1Br [Example I-86]                   100

## Input # get_value(readout='Post-emergence action against AVEFA in %', item= COC(=O)[C@@H](C)Oc1nn(-c2nc(F)ccc2F)c(-c2cncc(F)c2)c1Cl [Example I-154] )
## Output 80

## Input # get_value(readout='Post-emergence action against AVEFA in %', item= COC(=O)[C@@H](C)Oc1nn(-c2ccccn2)c(-c2ccc(F)nc2)c1Br [Example I-252] )
## Output 80

## Input # get_value(readout='Post-emergence action against AVEFA in %', item= O=C(O)COc1nn(-c2ncccc2C(F)(F)F)c(-c2ccc(F)nc2)c1Br [Example I-310] )
## Output 100

## Input # get_value(readout='Post-emergence action against AVEFA in %', item= CCOC(=O)COc1nn(-c2ccccn2)c(-c2ccnc(F)c2)c1Br [Example I-01] )
## Output 100

## Input # get_value(readout='Post-emergence action against AVEFA in %', item= Cc1ncccc1-n1nc(OCC(=O)O)c(Br)c1-c1cncc(F)c1 [II-38] )
## Output 90

---

Tested on: Triticum aestivum (TRZAS)
Type: in vivo
Details: crop plant compatibility, 20 g/ha, effect vs untreated controls
Post-emergence action against TRZAS in % overview
Write it as a number; the unit % goes unstated.

> print(dat)
                                   compound  recorded.measurement
1  C=Cc1c(OCC(=O)OCC)nn(-c2ccccn2)c1-c1ccc(F)nc1 [Example I-273]                     0

Okay, now this compound:
## Input # returns recorded Post-emergence action against TRZAS in % (system: Triticum aestivum (TRZAS)) for CCOC(=O)CCNC(=O)COc1nn(-c2ncccc2F)c(-c2ccc(OC)nc2)c1Br [Example I-47]
## Output 10

---

Test system: Zea mays (ZEAMX)
Format: in vivo
Conditions: pre-emergence, 80 g/ha, crop plant compatibility, in comparison to untreated controls
Pre-emergence action against ZEAMX in % overview

Solved cases below.
> print(dat)
                              smiles.record  recorded.measurement
1  O=C(O)COc1nn(-c2ccnc(F)c2)c(-c2ccc(F)nc2)c1Br                   20%
2  COC(=O)CCOC(=O)COc1nn(-c2ncccc2C(F)(F)F)c(-c2ccc(F)nc2)c1Br                    0%
3  C=CCNC(=O)COc1nn(-c2ncccc2F)c(-c2ccc(F)nc2)c1Br                    0%
4  COC(=O)COc1nn(-c2nc(F)ccc2F)c(-c2ccc(F)nc2)c1C1CC1                   10%

Okay, now this compound:
## Input # get_value(readout='Pre-emergence action against ZEAMX in %', item= COC(=O)COc1nn(-c2ncccc2F)c(-c2cncc(F)c2)c1Br )
## Output 0%
